system-tested: T1, mouse CD112R overexpressed on 293T cells (mouse)
T1 construct: whole, on cells; also called 293T.mCD112R; 293T-mouse CD112R
experimental-protocol: flow cytometry, 293T cells overexpressing mouse CD112R
Recorded gMFI (fold increase over isotype) values for a group of binders are listed next.
measured-property: gMFI (fold increase over isotype)

[
  {
    "binder": "Antibody 36 (antibody, V domains shown, Purified as IgG; compared with an IgG1 isotype control and detected with anti-human IgG Fc; also called antibody clone number 36; clone 36) VH: QVQLVQSGAEVKKPGSSVKVSCKASGGTFATYAISWVRQAPGQGLEWMGGIFPLSGTANYAQKFQGRVTITADESTSTAYMELSSLRSEDTAVYYCARDTGRGYTRHFWFDPWGQGTLVTVSS VL: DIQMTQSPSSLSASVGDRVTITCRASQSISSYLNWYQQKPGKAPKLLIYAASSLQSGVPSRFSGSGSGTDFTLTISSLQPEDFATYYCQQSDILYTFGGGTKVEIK",
    "measured-property": "gMFI (fold increase over isotype)",
    "measured-result": "76.3 fold increase over isotype"
  },
  {
    "binder": "Antibody 33 (antibody, V domains shown, Purified as IgG; compared with an IgG1 isotype control and detected with anti-human IgG Fc; also called antibody clone number 33; clone 33) VH: QVQLVQSGAEVKKPGSSVKVSCKASGGTFGNYAISWVRQAPGQGLEWMGGIIPIPGIANYAQKFQGRVTITADESTSTAYMELSSLRSEDTAVYYCARDTGRGYTRHFWFDPWGQGTLVTVSS VL: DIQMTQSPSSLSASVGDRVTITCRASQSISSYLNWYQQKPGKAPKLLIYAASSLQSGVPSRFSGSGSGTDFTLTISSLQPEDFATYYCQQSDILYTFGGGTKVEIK",
    "measured-property": "gMFI (fold increase over isotype)",
    "measured-result": "73.3 fold increase over isotype"
  },
  {
    "binder": "Antibody 34 (antibody, V domains shown, Purified as IgG; compared with an IgG1 isotype control and detected with anti-human IgG Fc; also called antibody clone number 34; clone 34) VH: QVQLVQSGAEVKKPGSSVKVSCKASGGTFSSAAISWVRQAPGQGLEWMGGIFPISGHANYAQKFQGRVTITADESTSTAYMELSSLRSEDTAVYYCARDTGRGYTRHFWFDPWGQGTLVTVSS VL: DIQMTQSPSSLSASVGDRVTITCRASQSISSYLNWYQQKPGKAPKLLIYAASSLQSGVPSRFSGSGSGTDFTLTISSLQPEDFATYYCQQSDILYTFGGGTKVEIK",
    "measured-property": "gMFI (fold increase over isotype)",
    "measured-result": "72.2 fold increase over isotype"
  },
  {
    "binder": "Antibody 46 (antibody, V domains shown, in the mouse tumor studies it was used as mouse IgG2a; also called antibody clone number 46; clone 46) VH: EVQLVESGGGLVQPGRSLRLSCTASGFTFGDYAMSWFRQAPGKGLEWVGFIGSKAYGGTTEYTASVKGRFTISRDGSKSIAYLQMNSLKTEDTAVYYCARGPRRYTYGMDVWGQGTTVTVSS VL: DIQMTQSPSSLSASVGDRVTITCRASQSISSYLNWYQQKPGKAPKLLIYAASSLQSGVPSRFSGSGSGTDFTLTISSLQPEDFATYYCQQSSTPLTFGGGTKVEIK",
    "measured-property": "gMFI (fold increase over isotype)",
    "measured-result": "74.8 fold increase over isotype"
  }
]
